Origin of measurements: patent US8680012B2

- Test system: Amaranthus retroflexus (AMARE)
- Protocol Notes: Example B post-emergence herbicidal activity, glasshouse pot test
- Type: in vivo
- Condition Context: 312 h, rate 250 g/ha, evaluated after 13 days, read-out: Post-emergence activity AMARE (100=total damage to plant; 0=no damage to plant)
pest or weed control at 250 g/ha reference
Measured Property: pest or weed control at 250 g/ha (%)

smiles_code=CCc1ccc(-c2ccc(Cl)c(C(F)(F)F)c2F)cc1C1=C(O)C(C)(C)OC(C)(C)C1=O assayed_target="Amaranthus retroflexus (AMARE)" measured_property="pest or weed control at 250 g/ha" uom=% reading=0
smiles_code=CCc1ccc(-c2ccc(Cl)c(OC)c2)cc1C1=C(O)C(C)(C)OC(C)(C)C1=O assayed_target="Amaranthus retroflexus (AMARE)" measured_property="pest or weed control at 250 g/ha" uom=% reading=0
smiles_code=CCc1ccc(-c2ccc(Cl)nc2)cc1C1=C(O)C(C)(C)C(=O)C(C)(C)C1=O assayed_target="Amaranthus retroflexus (AMARE)" measured_property="pest or weed control at 250 g/ha" uom=% reading=40
smiles_code=Cc1cc(C)c(-c2ccc(Cl)cc2F)c(C)c1C1=C(O)C(C)(C)OC(C)(C)C1=O assayed_target="Amaranthus retroflexus (AMARE)" measured_property="pest or weed control at 250 g/ha" uom=% reading=0
smiles_code=CCc1ccc(-c2ccc(Cl)cc2C#N)cc1C1=C(O)C(C)(C)OC(C)(C)C1=O assayed_target="Amaranthus retroflexus (AMARE)" measured_property="pest or weed control at 250 g/ha" uom=% reading=0
smiles_code=COc1ccc(-c2ccc(Cl)c(F)c2)cc1C1=C(O)C(C)(C)OC(C)(C)C1=O assayed_target="Amaranthus retroflexus (AMARE)" measured_property="pest or weed control at 250 g/ha" uom=% reading=0
smiles_code=CCOc1ccc(-c2ccc(Cl)cc2F)cc1C1=C(O)C(C)(C)OC(C)(C)C1=O assayed_target="Amaranthus retroflexus (AMARE)" measured_property="pest or weed control at 250 g/ha" uom=% reading=0
smiles_code=CCc1ccc(-c2cnc(Cl)cc2C)cc1C1=C(O)C(C)(C)OC(C)(C)C1=O assayed_target="Amaranthus retroflexus (AMARE)" measured_property="pest or weed control at 250 g/ha" uom=% reading=0

----------
Attribute: pest or weed control at 250 g/ha
- Tested on: Alopecurus myosuroides (ALOMY)
- Protocol Notes: Example B post-emergence herbicidal activity, glasshouse pot test
- Format: in vivo
- Condition Context: 312 h, rate 250 g/ha, evaluated after 13 days, read-out: Post-emergence activity ALOMY (100=total damage to plant; 0=no damage to plant)
Measured Property: pest or weed control at 250 g/ha

smiles_code=CCc1ccc(-c2ccc(Cl)c(F)c2)cc1C1=C(O)C(C)(C)C(=O)C(C)(C)C1=O assayed_target="Alopecurus myosuroides (ALOMY)" reading=60%
smiles_code=CCc1ccc(-c2ccc(Cl)c(C#N)c2)cc1C1=C(O)C(C)(C)C(=O)C(C)(C)C1=O assayed_target="Alopecurus myosuroides (ALOMY)" reading=70%
smiles_code=Cc1ccc(-c2ccc(Cl)cc2F)cc1C1=C(O)C(C)(C)C(=O)C(C)(C)C1=O assayed_target="Alopecurus myosuroides (ALOMY)" reading=10%
smiles_code=CCc1ccc(-c2ccc(Cl)nc2)cc1C1=C(O)C(C)(C)OC(C)(C)C1=O assayed_target="Alopecurus myosuroides (ALOMY)" reading=90%

----------
- System: Alopecurus myosuroides (ALOMY)
- Protocol Notes: Example B post-emergence herbicidal activity, glasshouse pot test
- Format: in vivo
- Condition Context: 312 h, rate 250 g/ha, evaluated after 13 days, read-out: Post-emergence activity ALOMY (100=total damage to plant; 0=no damage to plant)
Quick reference for pest or weed control at 250 g/ha among some compounds
Measured Property: pest or weed control at 250 g/ha (%)

compound="CCc1ccc(-c2ccc(Cl)cc2Cl)cc1C1=C(O)C(C)(C)S(=O)(=O)C(C)(C)C1=O [Compound C-11]" assayed_target="Alopecurus myosuroides (ALOMY)" reading=70
compound="CCc1ccc(-c2ccc(Cl)cc2)cc1C1=C(O)C(C)(C)OC(C)(COC)C1=O (stereo not drawn) [Compound A-99]" assayed_target="Alopecurus myosuroides (ALOMY)" reading=90
compound="CCc1ccc(-c2ccc(Cl)cc2F)cc1C1=C(O)C(C)(C)OC(C)(C)C1=O [Compound A-66]" assayed_target="Alopecurus myosuroides (ALOMY)" reading=20
compound="CCc1ccc(-c2ccc(Cl)cn2)cc1C1=C(O)C(C)(C)OC(C)(C)C1=O [Compound A-150]" assayed_target="Alopecurus myosuroides (ALOMY)" reading=90
compound="CCc1ccc(-c2ccc(Cl)cc2Cl)cc1C1=C(O)C(C)(C)SC(C)(C)C1=O (single isomer, unassigned) [Compound C-4]" assayed_target="Alopecurus myosuroides (ALOMY)" reading=60
compound="CCc1ccc(-c2ccc(Cl)cc2)cc1C1=C(O)[C@]2(C)O[C@@H](CC2COC)C1=O (stereo partly drawn) [Compound A-122]" assayed_target="Alopecurus myosuroides (ALOMY)" reading=80
compound="CCc1ccc(-c2ccc(Cl)c(F)c2F)cc1C1=C(O)C(C)(C)OC(C)(C)C1=O [Compound A-153]" assayed_target="Alopecurus myosuroides (ALOMY)" reading=100
compound="CCc1ccc(-c2ccc(Cl)cc2Cl)cc1C1=C(O)C(C)(C)OC(C)C1=O (single isomer, unassigned) [Compound A-71]" assayed_target="Alopecurus myosuroides (ALOMY)" reading=30
compound="CCC(=O)OC1=C(c2cc(-c3ccc(Cl)cc3Cl)ccc2CC)C(=O)C(C)(C)OC1(C)C [Compound D-25]" assayed_target="Alopecurus myosuroides (ALOMY)" reading=0
compound="CCc1ccc(-c2ccc(Cl)c(Cl)c2Cl)cc1C1=C(O)C(C)(C)OC(C)(C)C1=O [Compound A-137]" assayed_target="Alopecurus myosuroides (ALOMY)" reading=90
compound="CCc1ccc(-c2c(Cl)cc(Cl)cc2Cl)cc1C1=C(O)C(C)(C)OC(C)(C)C1=O [Compound A-74]" assayed_target="Alopecurus myosuroides (ALOMY)" reading=0
compound="COc1ccc(-c2ccc(Cl)cc2)cc1C1=C(O)C(C)(C)OC(C)(C)C1=O [Compound A-90]" assayed_target="Alopecurus myosuroides (ALOMY)" reading=40
compound="CCc1ccc(-c2ccc(Cl)c(Cl)c2)cc1C1=C(O)[C@]2(C)O[C@@H](CC2COC)C1=O (stereo partly drawn) [Compound A-130]" assayed_target="Alopecurus myosuroides (ALOMY)" reading=40
compound="CCc1ccc(-c2ccc(Cl)c(C(F)(F)F)c2)cc1C1=C(O)C(C)(C)C(=O)C(C)(C)C1=O [Compound B-10]" assayed_target="Alopecurus myosuroides (ALOMY)" reading=40
compound="CCc1ccc(-c2ccc(Cl)c(F)c2)cc1C1=C(O)C(C)(C)[S+]([O-])C(C)(C)C1=O (stereo not drawn) [Compound C-12]" assayed_target="Alopecurus myosuroides (ALOMY)" reading=80
compound="CCc1ccc(-c2ccc(Cl)cc2Cl)cc1C1=C(O)C(C)(C)[S+]([O-])C(C)(C)C1=O (single isomer, unassigned) [Compound C-10]" assayed_target="Alopecurus myosuroides (ALOMY)" reading=20
compound="CCc1ccc(-c2ccc(Cl)cc2C(F)(F)F)cc1C1=C(O)C(C)(C)OC(C)(C)C1=O [Compound A-72]" assayed_target="Alopecurus myosuroides (ALOMY)" reading=20
compound="CCc1ccc(-c2ccc(OC(F)F)cc2)cc1C1=C(O)C(C)(C)OC(C)(C)C1=O [Compound A-151]" assayed_target="Alopecurus myosuroides (ALOMY)" reading=100
compound="CCOC[C@]12CC[C@H](O1)C(=O)C(c1cc(-c3ccc(Cl)c(Cl)c3)ccc1CC)=C2O (single isomer, unassigned) [Compound A-129]" assayed_target="Alopecurus myosuroides (ALOMY)" reading=70
compound="CCc1ccc(-c2cc(F)c(Cl)c(F)c2)cc1C1=C(O)C(C)(C)OC(C)(C)C1=O [Compound A-152]" assayed_target="Alopecurus myosuroides (ALOMY)" reading=100
compound="CCc1ccc(-c2ccc(Cl)c(C#N)c2)cc1C1=C(O)C(C)(C)OC(C)(C)C1=O [Compound A-69]" assayed_target="Alopecurus myosuroides (ALOMY)" reading=70
compound="CCc1ccc(-c2ccc(Cl)c(Cl)c2)cc1C1=C(O)[C@H]2CC[C@H](O2)C1=O [Compound A-132]" assayed_target="Alopecurus myosuroides (ALOMY)" reading=20
compound="Cc1ccc(-c2ccc(Cl)cc2Cl)cc1C1=C(O)C(C)(C)[S+]([O-])C(C)(C)C1=O (single isomer, unassigned) [Compound C-7]" assayed_target="Alopecurus myosuroides (ALOMY)" reading=20
compound="CCc1ccc(-c2ccc(Cl)cc2Cl)cc1C1=C(O)C(C)(C)C(=O)C(C)(C)C1=O [Compound B-13]" assayed_target="Alopecurus myosuroides (ALOMY)" reading=0
compound="Cc1ccc(-c2ccc(Cl)cc2Cl)cc1C1=C(O)C(C)(C)SC(C)(C)C1=O [Compound C-6]" assayed_target="Alopecurus myosuroides (ALOMY)" reading=20
compound="CCc1ccc(-c2ccc(Cl)nc2)cc1C1=C(OC(C)=O)C(C)(C)OC(C)(C)C1=O [Compound D-22]" assayed_target="Alopecurus myosuroides (ALOMY)" reading=90
compound="Cc1ccc(-c2ccc(Br)cc2)cc1C1=C(O)C(C)(C)OC(C)(C)C1=O [Compound A-82]" assayed_target="Alopecurus myosuroides (ALOMY)" reading=100
compound="CCc1ccc(-c2ccc(Cl)c([N+](=O)[O-])c2)cc1C1=C(O)C(C)(C)OC(C)(C)C1=O [Compound A-136]" assayed_target="Alopecurus myosuroides (ALOMY)" reading=80
compound="CCc1ccc(-c2ccc(Cl)cc2C)cc1C1=C(O)C(C)(C)OC(C)(C)C1=O [Compound A-64]" assayed_target="Alopecurus myosuroides (ALOMY)" reading=20
compound="CCc1ccc(-c2ccc(Cl)c(F)c2)cc1C1=C(O)C(C)(C)S(=O)(=O)C(C)(C)C1=O [Compound C-13]" assayed_target="Alopecurus myosuroides (ALOMY)" reading=80
